System: biotinyl-Met-oxazolone
assay-overview: self-aminoacylation, catalytic enhancement (BMO) (fold over background); higher = more active; k-Seq, kA / k0A0; sequences stand for … in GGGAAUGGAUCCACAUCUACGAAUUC…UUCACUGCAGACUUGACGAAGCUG
Variants at the floor of the assay were thinned out.
Decision: self-aminoacylation >= 2 yields Condition met, all other cases yield Condition not met.

Would you please look over these solved cases?
AAGUUUUCUAAGAGUCGCAAG [Fam3.1 aminoacylation ribozyme variant]	Condition not met
AUUCAUCUAGGGCAUCGGGUG [Fam2.2 aminoacylation ribozyme variant]	Condition met
AUUACCCAGGUCAUCGACUGA [Fam2.1 aminoacylation ribozyme variant]	Condition not met
AUUCACUUAGGUCAUCGGGGG [Fam2.2 aminoacylation ribozyme variant]	Condition met
AAGUCUGCUAAUAGUCGGAAG [Fam3.1 aminoacylation ribozyme variant]	Condition met
AUUACUCUGGUCAUCGGGUGA [Fam2.1 aminoacylation ribozyme variant]	Condition met
CUACUUCAAACAAACGAUCUG [Fam1A.1 aminoacylation ribozyme variant]	Condition not met
AUUAACCUAGGUUAUCGGGUG [Fam2.2 aminoacylation ribozyme variant]	Condition met

Okay, now this sequence:
Query string: Could you verify whether the entry CCACACUUCAAGCAACCAGUC [Fam1B.1 aminoacylation ribozyme variant] shows self-aminoacylation of no less than 2?
Result string: Condition not met
